Method Description: Local anaesthetic activity in rat sciatic nerve assessed as time required to decrease compound action potential to 50 % relative to Lidocaine
Assay type: functional
Parameters: scale not given: the % may be the effect or the level left
Activity below 40% gives Not fulfilled; Activity at or above it gives Fulfilled.

> print(dat)
                                   molecule   answer.label
1  CCNC(C)C(=O)Nc1nsc2ccccc12 (stereo not drawn)      Fulfilled
2  Cc1ccc2snc(NC(=O)C(C)N3CCOCC3)c2c1 (stereo not drawn)      Fulfilled
3  Cc1ccc2snc(NC(=O)C(C)N3CCCC3)c2c1 (stereo not drawn)      Fulfilled
4  CC(NC1CCCCC1)C(=O)Nc1nsc2ccccc12 (stereo not drawn)      Fulfilled
5                CC(C)NCC(=O)Nc1nsc2ccccc12  Not fulfilled

Continue with the molecule presented below.
### Prompt // inclusive: Activity at least 40%? input: O=C(CN1CCC(c2ccccc2)CC1)Nc1nsc2ccccc12
### Response Not fulfilled

###

Method Description: Local anaesthetic activity in rat sciatic nerve assessed as time required to decrease compound action potential to 100 %
Assay type: functional
Endpoint Label: IT100 (min)
Reply numerically in min, unit not repeated.

> print(dat)
                                   compound  endpoint.label  unit.info  assay.value
1  CNC(C)C(=O)Nc1nsc2ccc(C)cc12 (stereo not given)           IT100        min           20
2  CCCNC(C)C(=O)Nc1nsc2ccccc12 (stereo not given)           IT100        min         24.1

For this compound ( CNCCC(=O)Nc1nsc2ccccc12 ), measured IT100 is 20.5

For this compound ( CC(C(=O)Nc1nsc2ccccc12)N1CCCC1 (stereo not given) ), measured IT100 is 11.6

For this compound ( CCNCC(=O)Nc1nsc2ccccc12 ), measured IT100 is 24.2

For this compound ( CCNC(C)C(=O)Nc1nsc2ccccc12 (stereo not given) ), measured IT100 is 12.9

For this compound ( O=C(CN1CCCC1)Nc1nsc2ccccc12 ), measured IT100 is 14

For this compound ( Cc1ccc2snc(NC(=O)C(C)N3CCCC3)c2c1 (stereo not given) ), measured IT100 is 17.5

For this compound ( CC(C(=O)Nc1nsc2ccccc12)N1CCOCC1 (stereo not given) ), measured IT100 is 23

For this compound ( CCNCCC(=O)Nc1nsc2ccccc12 ), measured IT100 is 79.5

###

Method Description: Local anaesthetic activity in rat sciatic nerve assessed as time required to decrease compound action potential to 100 % at 1.5% relative to Lidocaine
Type: functional
Parameters: scale not given: the % may be the effect or the level left
Listed here: items and their measured Activity.
Remember to quote the unit after the number.

> print(dat)
               substance.smiles  assay.value
1   CCN(CC)CC(=O)Nc1nsc2ccccc12          26%
2  O=C(CN1CCOCC1)Nc1nsc2ccccc12          26%
3  O=C(CN1CCCCC1)Nc1nsc2ccccc12        59.8%
4   O=C(CN1CCCC1)Nc1nsc2ccccc12        49.5%

Now take the following molecule into account.
For this molecule ( CCNCC(=O)Nc1nsc2ccccc12 ), measured Activity is 28.1%
